// provenance: the supplement of paper PMC11451515

Test system: SEM cells
assay.comment: cell viability relative to DMSO control; higher = less cytotoxic
test.context: RPMI 5 mM glucose + 10% dialyzed FBS; 48 h; 5.12 µM
endpoint.label: cell viability

>>> reported_value("CC1(C)CCC[C@]2(C)[C@H]3CC(=O)O[C@]3(C)CC[C@@H]12")
"119%"
>>> reported_value("Oc1ccc2c3c1O[C@H]1c4[nH]c5c(c4C[C@@]4(O)[C@@H](C2)N(CC2CC2)CC[C@]314)C[C@@]1(O)[C@H]2Cc3ccc(O)c4c3[C@@]1(CCN2CC1CC1)[C@H]5O4")
"98.4%"
>>> reported_value("O=NN(CCCl)C(=O)NCCCl")
"111%"

Give measured cell viability for every item shown.
1. COc1cc2c(cc1OC)C1CC(=O)C(CC(C)C)CN1CC2 (stereo not drawn)
2. CC(=O)O.Cc1c(-c2ccc(O)cc2)n(Cc2ccc(OCCN3CCCCCC3)cc2)c2ccc(O)cc12
3. CC[C@H](CC#N)OC(=O)N[C@@H](C)c1cccc(NC(=O)Nc2ccc(-c3cnco3)c(OC)c2)c1
4. CCCCCOC(=O)NC\1=N\C(=O)N(\C=C1F)[C@@H]2O[C@H](C)[C@@H](O)[C@H]2O
5. CN[S+](=O)([O-])Cc1ccc2[nH]cc(CCN(C)C)c2c1

1: 124%; 2: 110%; 3: 67.9%; 4: 96.8%; 5: 94.8%
